# ASSAY COMMENT: prion 5' UTR mRNA inhibition, cherry-pick retest (AID 504592)
# MEASUREMENT PARAMETERS: cell-based prion protein 5' UTR reporter, plate reader; at 2.5 µM; stronger effect = higher value
Among all 1,100 compounds or so, about 540 (49%) were called active. Roughly 5% stayed inconclusive and do not appear here. The set was probably picked from earlier hits. Not all results are given here.
MEASURED PROPERTY: inhibition (%)
Return type: number; implicit unit %.

query: Suppose we examine the compound "Cc1ccc(CCC(=O)Nc2ncc(Cc3cc(Cl)ccc3Cl)s2)o1" ; what inhibition value has been reported?
result: 89.3

More entries:
query: # query: inhibition of entry "Cc1ccc(-c2cn3cc(C)ccc3n2)cc1"
result: 89.9

query: I'd like to know its inhibition. The compound in question is "COC(=O)Cc1[nH]n(-c2nc3ccccc3s2)c(=O)c1C(C)=Nc1ccc(OC)cc1"
result: 80.6

query: Find the recorded inhibition belonging to "O=C1[C@@H](c2ccccc2)[C@@H](c2ccccc2)N1c1cccnc1" and report it.
result: -4.06

query: Query (compound): "CCn1c(=O)c(=O)[nH]c2c(=O)oc3ccc(S(=O)(=O)Nc4ccc(OC)cc4)cc3c21" ; field requested: inhibition
result: -6.15

This collection of values is drawn from PubChem BioAssay AID504592.
